Molecular target: D(1A) dopamine receptor (Homo sapiens)
Experiment: Antagonist of Human D 1 Dopamine Receptor: qHTS; note: % is set by controls: 0 for no effect and ±100 for the full control effect
Conditions: HEK293 TREx D1 cells, calcium flux, dopamine EC80; at 10 µM; hits give low values
Procedure: Dopamine receptors (DARs) are involved in the etiology and/or therapy of a number of neuropsychiatric and endocrine disorders. […] Freshly passaged cells are plated in 1536 well black, clear bottom plates at a density of 4000 cells/well in 3 ul of complete media containing 1x tetracycline inducer. […] Agonist read: A 10 cycle (1 second/cycle) baseline measurement is taken and then the FDSS online 1536 pintool delivers 23 nl of compound library (as well as dopamine controls) to the plate. […]
The whole screen tested about 360,000 compounds, of which about 11,000 (3.1%) were called active. The sample holds actives, similar compounds and a random draw of the others, so the mix is not that of the screen.
ENDPOINT_LABEL: activity change, negative = inhibition

[ask] Endpoint output: activity change, negative = inhibition of Cc1nn(CC(=O)O)c(=O)c2cc3cc(F)ccc3n12 . Value?
[reply] 16.8% (inactive)

[ask] Endpoint output: activity change, negative = inhibition of CN1CCN(C(CNC(=O)c2ccccc2F)c2ccc3c(c2)OCO3)CC1 (configuration not stated) . Value?
[reply] 8.69% (inactive)

[ask] Endpoint output: activity change, negative = inhibition of O=C(Cc1cccs1)Nc1nnc(SCc2ccc(F)cc2)s1 . Value?
[reply] -79.5% (active)

[ask] Endpoint output: activity change, negative = inhibition of CCOc1ccccc1NC(=O)CCN1CCN(S(=O)(=O)c2ccc(OC)cc2)CC1 . Value?
[reply] -3.32% (inactive)

[ask] Endpoint output: activity change, negative = inhibition of CCSc1ncc(Cl)c(C(=O)Nc2c(C(=O)c3ccccc3)oc3ccccc23)n1 . Value?
[reply] -6.04% (inactive)

[ask] Endpoint output: activity change, negative = inhibition of COc1ccc(/C=C/c2noc(-c3ccccc3O)n2)cc1OC . Value?
[reply] 4.82% (inactive)

[ask] Endpoint output: activity change, negative = inhibition of COCCNS(=O)(=O)c1cc(-c2nn3c(C)nnc3c3ccccc23)ccc1C . Value?
[reply] -4.16% (inactive)

[ask] Endpoint output: activity change, negative = inhibition of Cc1ccc(NC(=O)CN2c3ccccc3S(=O)(=O)c3ccccc32)cc1F . Value?
[reply] -3% (inactive)

[ask] Endpoint output: activity change, negative = inhibition of Cc1ccc(NC(=O)Nc2ccccc2)c(Br)c1 . Value?
[reply] -35.1% (active)

[ask] Endpoint output: activity change, negative = inhibition of O=c1[nH]cnc2c1c(-c1ccccc1)cn2-c1ccc(F)cc1 . Value?
[reply] -39.4% (active)

[ask] Endpoint output: activity change, negative = inhibition of COc1ccc(CNC(=O)C2CCN(S(C)(=O)=O)CC2)cc1 . Value?
[reply] -17.7% (inactive)

[ask] Endpoint output: activity change, negative = inhibition of CCOc1cccc2c1N[C@@H](c1ccc(C(=O)O)cc1)[C@H]1CC=C[C@@H]21 . Value?
[reply] -19.7% (inactive)

[ask] Endpoint output: activity change, negative = inhibition of CC(C)(C)CC(=O)Nc1nnc(SCC(=O)NCc2cccs2)s1 . Value?
[reply] 3.61% (inactive)

[ask] Endpoint output: activity change, negative = inhibition of O=C(C1=C(O)C(=O)N(Cc2ccccc2)C1c1ccco1)c1ccco1 (configuration not stated) . Value?
[reply] -36.2% (active)

[ask] Endpoint output: activity change, negative = inhibition of COc1ccc(CNC(=O)C2CCN(S(=O)(=O)N3CCOCC3)CC2)cc1 . Value?
[reply] -42.3% (active)

[ask] Endpoint output: activity change, negative = inhibition of COc1ccccc1NC(=O)CCN1CCN(c2ccc(Cl)cc2)CC1 . Value?
[reply] -41% (active)

[ask] Endpoint output: activity change, negative = inhibition of O=S(=O)(c1ccc(C2CCCCC2)cc1)N1CCN(c2ccc(Cl)c(Cl)c2)CC1 . Value?
[reply] 14.7% (inactive)

[ask] Endpoint output: activity change, negative = inhibition of CC(C)c1ccc(C2C(C(=O)c3ccco3)=C(O)C(=O)N2CC2CCCO2)cc1 (configuration not stated) . Value?
[reply] -6.37% (inactive)

[ask] Endpoint output: activity change, negative = inhibition of CCc1cccc(NC(=O)c2cnc(N3CCOCC3)c3ccccc23)c1 . Value?
[reply] -4.31% (inactive)

[ask] Endpoint output: activity change, negative = inhibition of Oc1c(Cl)cc(Cl)c(Cl)c1Cc1c(O)c(Cl)cc(Cl)c1Cl . Value?
[reply] -41.7% (active)

[ask] Endpoint output: activity change, negative = inhibition of CCc1ccc(CN(Cc2ccco2)C(=O)COc2ccc(Cl)c(C)c2)cc1 . Value?
[reply] -3.05% (inactive)

[ask] Endpoint output: activity change, negative = inhibition of CCOc1cc(NC(=O)Nc2ccccc2)c(OCC)cc1NC(=O)CC . Value?
[reply] 0.545% (inactive)
